Tested on: Mus musculus
test-name: Inhibition of ataxia in mice by intraperitoneal administration.
Assay type: functional
condition-context: ip
measured-attribute: ED50

>>> result("Cc1[nH]n(C)c(=O)c1C(=N)c1cccc(C(F)(F)F)c1")
"> 30 mg/kg"
>>> result("Cc1[nH]n(C)c(=O)c1C(=N)c1ccc([N+](=O)[O-])cc1")
"> 90 mg/kg"
>>> result("Cn1[nH]cc(C(=N)c2ccccc2)c1=O")
"> 100 mg/kg"
>>> result("CCn1[nH]c(C)c(C(=N)c2ccccc2)c1=O")
"21.5 mg/kg"
>>> result("Cc1[nH]n(C)c(=O)c1C(=N)c1ccc(Cl)c(Cl)c1")
"> 30 mg/kg"
>>> result("CCCn1[nH]c(C)c(C(=N)c2ccccc2)c1=O")
"25.2 mg/kg"
>>> result("Cc1[nH]n(C)c(=O)c1C(=N)c1cccc([N+](=O)[O-])c1")
"> 100 mg/kg"
>>> result("CSc1ccc2c(c1)N(CCC1CCCCN1C)c1ccccc1S2 (stereo unspecified) [THIORIDAZINE]")
"> 100 mg/kg"
>>> result("CCn1[nH]c(C)c(C(=N)c2cccc(Cl)c2)c1=O")
"45.3 mg/kg"
>>> result("CCCn1[nH]c(C)c(C(=N)c2cccc(Cl)c2)c1=O")
"> 30 mg/kg"
>>> result("Cc1[nH]n(C)c(=O)c1/C(=N/C(=O)C(Cl)Cl)c1cccc(Cl)c1")
"> 100 mg/kg"

---

tested-system: alpha-2 adrenergic receptor (Rattus norvegicus)
test-name: Affinity for displacement of [3H]clonidine labeled alpha-2 adrenergic receptor
measured-attribute: IC50

>>> result("Cc1[nH]n(C)c(=O)c1C(=N)c1cccc(Cl)c1")
"> 10 µM"

---

tested-system: D(1A) dopamine receptor (Rattus norvegicus)
Sequence (P18901 whole entry): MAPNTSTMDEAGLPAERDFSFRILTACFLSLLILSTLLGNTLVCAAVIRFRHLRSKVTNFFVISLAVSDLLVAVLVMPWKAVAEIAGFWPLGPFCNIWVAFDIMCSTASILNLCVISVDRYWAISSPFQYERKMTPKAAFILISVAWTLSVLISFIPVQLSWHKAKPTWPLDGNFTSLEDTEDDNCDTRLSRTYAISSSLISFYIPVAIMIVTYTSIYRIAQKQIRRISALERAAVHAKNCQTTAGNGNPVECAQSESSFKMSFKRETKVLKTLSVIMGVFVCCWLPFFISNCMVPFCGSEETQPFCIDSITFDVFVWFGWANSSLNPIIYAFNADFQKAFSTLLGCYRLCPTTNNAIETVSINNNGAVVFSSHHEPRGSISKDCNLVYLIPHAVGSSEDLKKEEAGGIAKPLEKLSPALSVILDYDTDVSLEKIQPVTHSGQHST
test-name: Affinity for displacement of [3H]SCH-23390 labeled Dopamine receptor D1
measured-attribute: IC50

>>> result("Cc1[nH]n(C)c(=O)c1C(=N)c1cccc(Cl)c1")
"> 10 µM"

---

In this section we review reported ED50 values for a set of compounds.
System: Mus musculus
test-name: Inhibition of locomotor activity (LMA) and motor coordination in mice by intraperitoneal administration.
Assay type: functional
condition-context: ip
measured-attribute: ED50 (mg/kg)

>>> result("C/N=C(/c1cccc(Cl)c1)c1c(C)[nH]n(C)c1=O")
50.5
>>> result("Cc1[nH]n(C)c(=O)c1C(=N)c1ccc(F)cc1")
15
>>> result("Cc1[nH]n(C)c(=O)c1C(=N)c1ccccc1")
13.9
>>> result("Cc1[nH]n(C)c(=O)c1C(=N)c1ccccc1Cl")
31.1
>>> result("Cc1[nH]n(C)c(=O)c1C(=N)c1cccc(F)c1")
35.6
>>> result("CSc1ccc2c(c1)N(CCC1CCCCN1C)c1ccccc1S2 (stereo unspecified)")
2.9
>>> result("Cc1[nH]n(C)c(=O)c1C(=N)c1cccc([N+](=O)[O-])c1")
38.8
>>> result("Cc1[nH]n(C)c(=O)c1C(=N)c1ccc(Cl)c(Cl)c1")
26.4
>>> result("Cn1[nH]cc(C(=N)c2ccccc2)c1=O")
49.1
>>> result("Cc1[nH]n(C)c(=O)c1C(=N)c1ccco1")
33.6
>>> result("CCn1[nH]c(C)c(C(=N)c2ccccc2)c1=O")
11.8
>>> result("Cc1[nH]n(C)c(=O)c1/C(=N/C(=O)C(Cl)Cl)c1cccc(Cl)c1")
35.5
>>> result("Cc1[nH]n(C)c(=O)c1C(=N)c1cccc(Cl)c1")
15.2
>>> result("Cn1[nH]cc(C(=N)c2cccc(Cl)c2)c1=O")
47.8
>>> result("Cc1[nH]n(C)c(=O)c1C(=N)c1ccc(C(F)(F)F)cc1")
31.4
>>> result("CCn1[nH]c(C)c(C(=N)c2cccc(Cl)c2)c1=O")
16
>>> result("Cc1[nH]n(C)c(=O)c1/C(=N/C(=O)C(F)(F)F)c1cccc(Cl)c1")
17.9
>>> result("Cc1[nH]n(C)c(=O)c1C(=N)c1ccc(Cl)cc1")
18.9
>>> result("CCCn1[nH]c(C)c(C(=N)c2cccc(Cl)c2)c1=O")
21.5
>>> result("COc1ccccc1C(=N)c1c(C)[nH]n(C)c1=O")
46.6
>>> result("Cc1[nH]n(C)c(=O)c1C(=N)c1cccc(Br)c1")
20.5
>>> result("CCCCn1[nH]c(C)c(C(=N)c2ccccc2)c1=O")
48.7
>>> result("CC(=O)/N=C(\\c1cccc(Cl)c1)c1c(C)[nH]n(C)c1=O")
25.1
>>> result("CCc1[nH]n(C)c(=O)c1C(=N)c1cccc(Cl)c1")
60.6
>>> result("Cc1[nH]n(C(C)C)c(=O)c1C(=N)c1cccc(Cl)c1")
25
>>> result("CCCn1[nH]c(C)c(C(=N)c2ccccc2)c1=O")
11.6
>>> result("Cc1[nH]n(C)c(=O)c1C(=N)c1cc(Cl)cc(Cl)c1")
34.9
>>> result("CCCCn1[nH]c(C)c(C(=N)c2cccc(Cl)c2)c1=O")
88.3
>>> result("Cc1[nH]n(C)c(=O)c1C(=N)c1cccs1")
40.5
>>> result("Cc1[nH]n(C)c(=O)c1C(=N)c1ccc2ccccc2c1")
65.6
>>> result("Cc1cccc(C(=N)c2c(C)[nH]n(C)c2=O)c1")
33.1

---

tested-system: alpha-1 adrenergic receptor (Rattus norvegicus)
test-name: Affinity for displacement of [3H]WB-4101 labeled alpha-1 adrenergic receptor
pIC50: −log10 of the molar value.
measured-attribute: pIC50

>>> result("Cc1[nH]n(C)c(=O)c1C(=N)c1cccc(Cl)c1")
"< 5.00"

---

Test system: Mus musculus
test-name: Inhibition of ataxia in mice by intraperitoneal administration.
Type: functional
condition-context: ip
measured-attribute: ED50

>>> result("CN1CCN(C2=Nc3cc(Cl)ccc3Nc3ccccc32)CC1")
"10 mg/kg"
>>> result("Cc1[nH]n(C)c(=O)c1C(=N)c1ccco1")
"> 100 mg/kg"
>>> result("Cc1[nH]n(C)c(=O)c1C(=N)c1cccs1")
"> 90 mg/kg"
>>> result("Cc1cccc(C(=N)c2c(C)[nH]n(C)c2=O)c1")
"79.3 mg/kg"
>>> result("Cc1[nH]n(C)c(=O)c1C(=N)c1ccc(F)cc1")
"> 30 mg/kg"
>>> result("Cc1[nH]n(C)c(=O)c1C(=N)c1ccc(N)cc1")
"> 100 mg/kg"
>>> result("Cc1[nH]n(C)c(=O)c1C(=N)c1ccccc1")
"30.2 mg/kg"
>>> result("Cn1[nH]cc(C(=N)c2cccc(Cl)c2)c1=O")
"> 100 mg/kg"
>>> result("COc1ccc(C(=N)c2c(C)[nH]n(C)c2=O)cc1")
"> 100 mg/kg"
>>> result("CCCCn1[nH]c(C)c(C(=N)c2ccccc2)c1=O")
"> 100 mg/kg"
>>> result("Cc1[nH]n(C)c(=O)c1C(=N)c1cccc(F)c1")
"63.6 mg/kg"
>>> result("Cc1[nH]n(C)c(=O)c1C(=N)c1cccc(Cl)c1")
"> 100 mg/kg"
>>> result("Cc1[nH]n(C)c(=O)c1/C(=N/C(=O)C(F)(F)F)c1cccc(Cl)c1")
"> 100 mg/kg"
>>> result("CC(=O)/N=C(\\c1cccc(Cl)c1)c1c(C)[nH]n(C)c1=O")
"> 100 mg/kg"

---

Test system: Mus musculus
test-name: Inhibition of ataxia in mice by intraperitoneal administration.
Assay type: functional
condition-context: ip
Label True when ED50 < 70 mg/kg; otherwise False.

>>> answer_label("Cc1[nH]n(C)c(=O)c1C(=N)c1ccccc1Cl")
"True"
>>> answer_label("COc1ccccc1C(=N)c1c(C)[nH]n(C)c1=O")
"False"
>>> answer_label("Cc1[nH]n(C)c(=O)c1C(=N)c1ccc2ccccc2c1")
"False"
>>> answer_label("Cc1[nH]n(C)c(=O)c1C(=N)c1cc(Cl)cc(Cl)c1")
"False"
>>> answer_label("CCCCn1[nH]c(C)c(C(=N)c2cccc(Cl)c2)c1=O")
"True"
>>> answer_label("Cc1ccc(C(=N)c2c(C)[nH]n(C)c2=O)cc1")
"False"
>>> answer_label("CCc1[nH]n(C)c(=O)c1C(=N)c1cccc(Cl)c1")
"True"
>>> answer_label("C/N=C(/c1cccc(Cl)c1)c1c(C)[nH]n(C)c1=O")
"False"

---

In this section we review reported pIC50 values for a set of molecules.
tested-system: D(2) dopamine receptor (Rattus norvegicus, UniProt P61169)
Sequence (P61169 whole entry): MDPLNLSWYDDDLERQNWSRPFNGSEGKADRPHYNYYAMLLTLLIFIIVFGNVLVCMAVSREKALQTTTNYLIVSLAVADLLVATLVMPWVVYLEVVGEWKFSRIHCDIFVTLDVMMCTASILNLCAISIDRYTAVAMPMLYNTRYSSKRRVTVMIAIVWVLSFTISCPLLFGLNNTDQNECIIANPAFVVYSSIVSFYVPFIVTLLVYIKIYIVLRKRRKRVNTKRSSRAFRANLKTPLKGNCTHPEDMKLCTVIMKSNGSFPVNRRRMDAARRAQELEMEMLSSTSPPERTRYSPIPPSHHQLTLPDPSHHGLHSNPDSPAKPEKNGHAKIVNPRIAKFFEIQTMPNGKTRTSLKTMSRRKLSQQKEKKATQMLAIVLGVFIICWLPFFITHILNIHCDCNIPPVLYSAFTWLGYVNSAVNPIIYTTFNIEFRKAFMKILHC
test-name: In vitro binding affinity against Dopamine receptor D2 by displacement of [3H]haloperidol from rat striatal membranes.
pIC50: −log10 of the molar value.
measured-attribute: pIC50

>>> result("CCn1[nH]c(C)c(C(=N)c2cccc(Cl)c2)c1=O")
"< 5.00"
>>> result("Cc1[nH]n(C)c(=O)c1C(=N)c1cccc(Br)c1")
"< 5.00"
>>> result("CCCn1[nH]c(C)c(C(=N)c2cccc(Cl)c2)c1=O")
"< 5.00"
>>> result("Cc1[nH]n(C)c(=O)c1C(=N)c1ccc(F)cc1")
"< 5.00"
>>> result("Cc1[nH]n(C(C)C)c(=O)c1C(=N)c1cccc(Cl)c1")
"< 5.00"
>>> result("Cc1[nH]n(C)c(=O)c1C(=N)c1ccc(C(F)(F)F)cc1")
"< 5.00"
>>> result("Cc1[nH]n(C)c(=O)c1C(=N)c1ccccc1")
"< 5.00"
>>> result("CC(=O)/N=C(\\c1cccc(Cl)c1)c1c(C)[nH]n(C)c1=O")
"< 6.00"
>>> result("Cc1[nH]n(C)c(=O)c1/C(=N/C(=O)C(F)(F)F)c1cccc(Cl)c1")
"< 5.00"
>>> result("CCn1[nH]c(C)c(C(=N)c2ccccc2)c1=O")
"< 5.00"
>>> result("Cc1[nH]n(C)c(=O)c1C(=N)c1cccc(Cl)c1")
"< 5.00"
>>> result("Cc1[nH]n(C)c(=O)c1/C(=N/C(=O)C(Cl)Cl)c1cccc(Cl)c1")
"< 6.00"
>>> result("Cc1[nH]n(C)c(=O)c1C(=N)c1cccc(F)c1")
"< 5.00"
